Molecular target: hTLR7 (Homo sapiens)
Sequence (Q9NYK1 27-1049): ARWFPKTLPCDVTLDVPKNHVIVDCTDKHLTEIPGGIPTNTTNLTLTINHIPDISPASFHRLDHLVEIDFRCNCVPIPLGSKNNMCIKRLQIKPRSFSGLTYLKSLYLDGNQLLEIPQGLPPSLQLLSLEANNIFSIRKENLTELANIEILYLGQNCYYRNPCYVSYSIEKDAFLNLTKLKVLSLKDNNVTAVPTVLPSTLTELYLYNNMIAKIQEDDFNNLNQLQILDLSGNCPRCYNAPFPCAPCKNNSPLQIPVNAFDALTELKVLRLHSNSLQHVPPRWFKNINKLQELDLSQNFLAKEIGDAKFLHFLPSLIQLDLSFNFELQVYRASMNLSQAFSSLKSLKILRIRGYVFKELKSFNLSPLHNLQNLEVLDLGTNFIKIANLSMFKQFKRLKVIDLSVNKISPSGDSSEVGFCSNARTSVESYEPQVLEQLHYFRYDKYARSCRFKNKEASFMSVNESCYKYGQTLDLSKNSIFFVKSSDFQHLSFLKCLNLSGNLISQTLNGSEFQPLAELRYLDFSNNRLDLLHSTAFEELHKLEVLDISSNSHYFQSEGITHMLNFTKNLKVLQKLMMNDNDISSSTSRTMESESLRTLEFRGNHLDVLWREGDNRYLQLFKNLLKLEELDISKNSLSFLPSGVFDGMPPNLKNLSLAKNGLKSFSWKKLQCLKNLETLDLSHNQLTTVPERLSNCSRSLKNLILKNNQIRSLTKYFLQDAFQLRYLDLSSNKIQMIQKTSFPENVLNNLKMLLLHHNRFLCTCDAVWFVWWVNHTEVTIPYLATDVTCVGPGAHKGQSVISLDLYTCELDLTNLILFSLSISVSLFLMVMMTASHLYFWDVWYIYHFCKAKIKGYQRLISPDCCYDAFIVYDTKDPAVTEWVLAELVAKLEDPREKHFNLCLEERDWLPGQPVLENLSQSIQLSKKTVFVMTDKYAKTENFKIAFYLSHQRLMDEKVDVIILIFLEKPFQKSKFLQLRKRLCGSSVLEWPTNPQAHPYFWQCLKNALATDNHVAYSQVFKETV
Experiment: Human TLR7 Reporter Assay
Details: HEK-Blue hTLR7 cells, 16 hours, normalized to CL097 (6 μM) and DMSO
Can you tell me pEC50 for the items I'm about to list?
Note on pEC50: it is the negative log10 of concentration, concentration in mol/L.

Please give the measured pEC50 for this molecule: CCCCNc1nc(N)nc2cn(Cc3c(OC)cc(CN)cc3OC)nc12 [Compound 66]
6.31

Follow-up entry: CCCCNc1nc(N)nc2cn(Cc3nc(Br)oc3C)nc12 [Compound 160]
6.43

Try the molecule CCCCNc1nc(N)nc2cn(Cc3ncoc3C)nc12 [Compound 121]
6.31

Now consider CCCC(Nc1nc(N)nc2cn(Cc3c(OC)cccc3OC)nc12)C(F)F (stereo not shown) [Compound 136] .
6.76

Can you check CCCCC(CCC)Nc1nc(N)nc2cn(Cc3ccccc3OC)nc12 (stereo not shown) [Compound 18] next?
6.50

Another molecule: C=CCN(C)Cc1ccc(Cn2cc3nc(N)nc(N[C@H](CO)CCC)c3n2)c(OC)c1 [Compound 156]
7.11

// next record CCCCNc1nc(N)nc2cn(Cc3ccc(C4CCNC4=O)cc3)nc12 (stereo not shown) [Compound 202]
6.45

Same thing, different molecule: CCCCNc1nc(N)nc2cn(Cc3ccc(C4CCNC4=O)cc3)nc12 (stereo not shown) [Compound 200]
6.73

Try the molecule CCCCNc1nc(N)nc2cn(Cc3ccc(CCO)cc3OC)nc12 [Compound 128]
7.02

CCCCNc1nc(N)nc2cn(Cc3ncccn3)nc12 [Compound 122] , same question.
6.54

Next entry: CCCCNc1nc(N)nc2cn(Cc3c(OC)ccc(CCN)c3OC)nc12 [Compound 79]
5.35

Then CCCCNc1nc(N)nc2cn(Cc3ccccc3)nc12 [Compound 2] ?
5.96

Let us now turn to CCC[C@@H](CO)Nc1nc(N)nc2cn(Cc3c(OC)cc(C(C)N)cc3OC)nc12 (stereo partly shown) [Compound 224]
5.44

Now consider CCC[C@@H](C)Nc1nc(N)nc2cn(Cc3c(OC)cccc3OC)nc12 [Compound 113] and answer again.
7.72

Also need CCCCNc1nc(N)nc2cn(Cc3ccc(CN4CCN(C(=O)CN5C(=O)C=CC5=O)CC4)cc3OC)nc12 [Compound 105] , thanks.
5.75

And the next one, CCCCNc1nc(N)nc2cn(Cc3ccc(C4CCNC4)cc3)nc12 (stereo not shown) [Compound 196] ?
6.34

Request: CCCCNc1nc(N)nc2cn(Cc3ccc(C4CCCN4)cc3OC)nc12 (stereo not shown) [Compound 239]
6.81

Next up: CCCNc1nc(N)nc2cn(Cc3c(OC)cccc3OC)nc12 [Compound 26]
6.33

Proceed to CCCCNc1nc(N)nc2cn(Cc3c(OCC)cccc3OCC)nc12 [Compound 40]
6.90
